- system_under_test: T1, hCMV gH, gL, UL128, UL130 and UL131A co-expressed in HEK293T cells (human cytomegalovirus, UniProt P12824 24-743; P16832 31-278; P16837 1-171; P16772 1-214)
- T1 construct: whole, on cells; also called gH + gL + UL128 + UL130 + UL131A; gH/gL/UL128-130 complex
- experiment_description: cell cross-competition, 20x excess; competitor 4I22-biotin
measurement_name: Inhibition of binding (%)
Kindly answer with a numeric value in %, unit omitted.

Answered examples (2):
[[record]]
binder = "8J16 (antibody, V domains shown, human IgG mAb; also called 8J16-biotin) VH: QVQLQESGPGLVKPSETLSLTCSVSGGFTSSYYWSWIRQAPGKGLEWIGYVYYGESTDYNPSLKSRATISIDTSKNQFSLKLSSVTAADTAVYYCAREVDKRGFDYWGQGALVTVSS VL: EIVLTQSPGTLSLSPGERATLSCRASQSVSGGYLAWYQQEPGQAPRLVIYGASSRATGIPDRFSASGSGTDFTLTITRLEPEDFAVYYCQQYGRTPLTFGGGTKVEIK"
observed_measurement = 0

[[record]]
binder = "10P3 (antibody, V domains shown, human IgG mAb) VH: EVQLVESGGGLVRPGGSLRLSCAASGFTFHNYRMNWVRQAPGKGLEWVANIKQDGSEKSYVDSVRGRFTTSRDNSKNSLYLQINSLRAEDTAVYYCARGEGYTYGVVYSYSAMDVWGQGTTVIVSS VL: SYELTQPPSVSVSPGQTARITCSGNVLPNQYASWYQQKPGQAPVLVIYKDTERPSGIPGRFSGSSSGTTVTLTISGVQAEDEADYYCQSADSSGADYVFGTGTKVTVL"
observed_measurement = 0


Turning now to a further record.
Data request: Write down Inhibition of binding (%) measured for item 10F7 (antibody, V domains shown, human IgG mAb; also called 10F7-biotin) VH: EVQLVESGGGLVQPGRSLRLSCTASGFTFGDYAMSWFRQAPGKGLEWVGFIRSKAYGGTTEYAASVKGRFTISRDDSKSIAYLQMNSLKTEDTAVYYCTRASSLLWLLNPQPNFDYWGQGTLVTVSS VL: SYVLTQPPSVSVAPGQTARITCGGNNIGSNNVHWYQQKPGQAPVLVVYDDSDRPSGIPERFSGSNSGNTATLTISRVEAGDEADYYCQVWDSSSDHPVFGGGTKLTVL
Data returned: 100
